Target: T1, TNFR1 (Homo sapiens, UniProt P19438)
T1 chain: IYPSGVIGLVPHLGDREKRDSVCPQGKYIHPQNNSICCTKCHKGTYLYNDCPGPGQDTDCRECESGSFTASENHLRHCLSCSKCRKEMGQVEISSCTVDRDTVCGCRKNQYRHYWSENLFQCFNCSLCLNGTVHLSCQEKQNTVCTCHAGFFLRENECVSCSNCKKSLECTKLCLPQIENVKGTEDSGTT
Assay: yeast display SC50
Endpoint Name: apparent Kd (screen) (nM)

Sample records with apparent Kd (screen):
| Binder | Measurement Units | apparent Kd (screen) |
| --- | --- | --- |
| L3H (designed binder) MTHQELLREEALRRAEAEAFRYALELLAEKFPEQKEYLLDLAEEIESQIRSLSGVDVEDVRKFLDKEWAWVKELLAEHPAELAEVEAARAARLAELRAEVEAKVAA | nM | 2.25 |
| D56T (designed binder) MTLQELLREEALRRAEAEAFRYALELLAEKFPEQKEYLLDLAEEIESQIRSLSGVTVEDVRKFLDKEWAWVKELLAEHPAELAEVEAARAARLAELRAEVEAKVAA | nM | 2.48 |
| E86P (designed binder) MTLQELLREEALRRAEAEAFRYALELLAEKFPEQKEYLLDLAEEIESQIRSLSGVDVEDVRKFLDKEWAWVKELLAEHPAELAEVPAARAARLAELRAEVEAKVAA | nM | 4.83 |

P: E5Y (designed binder) MTLQYLLREEALRRAEAEAFRYALELLAEKFPEQKEYLLDLAEEIESQIRSLSGVDVEDVRKFLDKEWAWVKELLAEHPAELAEVEAARAARLAELRAEVEAKVAA
Q: L96N (designed binder) MTLQELLREEALRRAEAEAFRYALELLAEKFPEQKEYLLDLAEEIESQIRSLSGVDVEDVRKFLDKEWAWVKELLAEHPAELAEVEAARAARLAENRAEVEAKVAA
[ask] Identify the entry with the larger apparent Kd (screen). Options: P and Q Kindly give the label for the entry you pick.
[reply] P
